# subject.of.test: Adenosine receptor A2a (Homo sapiens, UniProt P29274)
# Sequence (P29274 whole entry): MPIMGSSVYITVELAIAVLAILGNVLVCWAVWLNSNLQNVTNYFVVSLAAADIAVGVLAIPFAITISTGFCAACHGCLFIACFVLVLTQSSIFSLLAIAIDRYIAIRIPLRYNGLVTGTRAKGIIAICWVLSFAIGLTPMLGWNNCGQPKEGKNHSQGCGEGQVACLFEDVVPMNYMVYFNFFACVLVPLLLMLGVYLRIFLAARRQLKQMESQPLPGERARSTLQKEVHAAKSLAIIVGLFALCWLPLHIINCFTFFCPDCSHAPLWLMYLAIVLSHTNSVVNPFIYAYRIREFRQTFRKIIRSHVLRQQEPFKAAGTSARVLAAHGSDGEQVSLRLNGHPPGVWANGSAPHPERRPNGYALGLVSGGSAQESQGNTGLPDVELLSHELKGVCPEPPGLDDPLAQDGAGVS
experimental.endpoint: Ki (nM)
// units = nM; emit number, no label

# count of solved cases: 2
smiles.representation: Cc1ccc(-c2nc(N)c3nn(-c4ccccc4O)cc3n2)o1
experimental.endpoint: Ki
obs.value: 147

smiles.representation: Cc1ccc(-c2nc(N)c3nn(Cc4ccccc4Cl)cc3n2)o1
experimental.endpoint: Ki
obs.value: 6.21

Next molecule, please.
Which measured Ki belongs to COc1ccccc1Cn1cc2nc(-c3ccc(C)o3)nc(N)c2n1 , tested on Adenosine receptor A2a (Homo sapiens, UniProt P29274)?
3.62

---

# subject.of.test: Adenosine receptor A1 (Homo sapiens, UniProt P30542)
# measurement.protocol: Displacement of [3H]-DPCPX from human adenosine A1 receptor expressed in CHO cell membranes after 120 mins by scintillation counting method
experimental.endpoint: Ki (nM)
Report as a plain number; the unit nM is understood.

Worked set:
smiles.representation: Cc1ccc(-c2nc(N)c3nn(Cc4ccccc4)cc3n2)o1
Ki [nM]: 136
--
smiles.representation: Cc1ccc(-c2nc(N)c3nn(Cc4ccccc4O)cc3n2)o1
Ki [nM]: 111
--
smiles.representation: COc1ccccc1-n1cc2nc(Cc3ccccc3)nc(N)c2n1
Ki [nM]: 103
--
smiles.representation: Nc1nc(Cc2ccccc2)nc2cn(-c3ccccc3O)nc12
Ki [nM]: 52
--
smiles.representation: Cc1nc(N)c2nn(-c3ccccc3F)cc2n1
Ki [nM]: 410
--
smiles.representation: Nc1nc(-c2ccco2)nc2cn(-c3ccccc3)nc12
Ki [nM]: 206

// returns reported Ki for input Cc1ccc(-c2nc(N)c3nn(Cc4ccccc4Cl)cc3n2)o1
60

Reported Ki, compound COc1cccc(Cn2cc3nc(-c4ccc(C)o4)nc(N)c3n2)c1 : ____
120

---

# subject.of.test: Adenosine receptor A1 (Homo sapiens, UniProt P30542)
# Sequence (P30542 whole entry): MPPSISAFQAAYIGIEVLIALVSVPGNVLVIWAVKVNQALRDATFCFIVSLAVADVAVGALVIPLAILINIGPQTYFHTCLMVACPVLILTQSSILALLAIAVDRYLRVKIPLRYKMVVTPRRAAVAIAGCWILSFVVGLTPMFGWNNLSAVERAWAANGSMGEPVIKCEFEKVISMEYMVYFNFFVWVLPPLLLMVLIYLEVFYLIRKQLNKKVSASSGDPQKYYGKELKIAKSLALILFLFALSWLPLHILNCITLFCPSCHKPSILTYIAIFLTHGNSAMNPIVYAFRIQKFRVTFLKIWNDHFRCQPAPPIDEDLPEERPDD
# measurement.protocol: Antagonist activity at human adenosine A1 receptor expressed in CHO cell membranes assessed as suppression of CCPA-mediated inhibition of cAMP level by scintillation counting method in presence of [3H]-cyclic AMP
experimental.endpoint: IC50
// unit must come after the numeric part

For the compound shown here, COc1ccccc1Cn1cc2nc(-c3ccco3)nc(N)c2n1 , give the reported IC50.
106 nM

What does the record list as IC50 for COc1cccc(Cn2cc3nc(-c4ccc(C)o4)nc(N)c3n2)c1 ?
134 nM

I'd like to know its IC50. The compound in question is COc1ccccc1Cn1cc2nc(-c3ccc(C)o3)nc(N)c2n1
21 nM

Look up IC50: Cc1ccc(-c2nc(N)c3nn(Cc4ccccc4)cc3n2)o1
152 nM
